- Measured Target: EP1 receptors (Homo sapiens)
- Sequence (P34995 whole entry): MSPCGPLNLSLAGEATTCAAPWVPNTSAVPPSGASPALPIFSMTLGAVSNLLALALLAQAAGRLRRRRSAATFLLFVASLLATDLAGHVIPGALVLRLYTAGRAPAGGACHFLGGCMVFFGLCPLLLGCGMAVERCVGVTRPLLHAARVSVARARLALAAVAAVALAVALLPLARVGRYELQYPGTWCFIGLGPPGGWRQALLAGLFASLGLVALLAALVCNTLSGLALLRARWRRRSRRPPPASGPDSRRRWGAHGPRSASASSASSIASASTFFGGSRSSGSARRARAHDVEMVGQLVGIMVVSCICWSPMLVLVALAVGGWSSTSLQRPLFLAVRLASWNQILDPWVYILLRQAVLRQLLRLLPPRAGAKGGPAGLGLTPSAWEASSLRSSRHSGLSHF
- Test: human EP1 calcium mobilisation assay (CHO-K1 cells, PGE2, FLIPR)
- Format: cell-based
- Parameters: expressed in transfected cells; host or cells: CHO-K1
- Assay Context: free bases or sodium salts; averages of a number of experiments; read-out: functional pKi value, human EP1 calcium mobilisation assay (converted)
Counter-ions that a name gives are not always drawn.
Give measured Ki for each item. Keep answers brief.

IN: Field request: Ki | item: `COc1ccc(S(=O)(=O)NC(=O)c2cccc(Cc3cc(Cl)ccc3OCc3ccc(Cl)cc3F)n2)cc1`
OUT: > 1000 nM

IN: Field request: Ki | item: `O=C(O)c1cccc(Cc2cc(Cl)ccc2OCC2CCCCC2)n1`
OUT: ≤ 31.6 nM

IN: Field request: Ki | item: `Cc1noc(C)c1S(=O)(=O)NC(=O)c1cccc(Cc2cc(Cl)ccc2OCc2ccc(Cl)cc2F)n1`
OUT: ≤ 31.6 nM

IN: Field request: Ki | item: `CS(=O)(=O)NC(=O)c1cccc(Cc2cc(Cl)ccc2OCc2ccc(Cl)cc2F)n1`
OUT: ≤ 31.6 nM

IN: Field request: Ki | item: `O=C(O)c1cccc(Cc2cc(Cl)ccc2OCc2ccc(Cl)cc2F)n1`
OUT: ≤ 31.6 nM

IN: Field request: Ki | item: `O=C(O)c1cccc(Cc2cc(Cl)ccc2OCc2ccc(Cl)cc2)n1`
OUT: < 1000 nM

IN: Field request: Ki | item: Cc1ccc(C(=O)O)nc1Cc1cc(Cl)ccc1OCc1ccc(Cl)cc1F [Example 39, sodium salt]
OUT: < 1000 nM

IN: Field request: Ki | item: O=C(O)c1cc(Cl)cc(Cc2cc(Cl)ccc2OCc2ccc(Cl)cc2F)n1 [Example 37, sodium salt]
OUT: ≤ 31.6 nM

Numbers sourced from patent US7759369B2.
